Source: paper PMC7761077

- measurement target: PPARγ LBD F287Y (Homo sapiens, UniProt P37231, F315Y)
- Construct: PPARγ LBD (residues 195–477 in PPARγ1 numbering) was cloned into the expression vector pET-28b(+)
- Sequence (P37231 223-505 F315Y): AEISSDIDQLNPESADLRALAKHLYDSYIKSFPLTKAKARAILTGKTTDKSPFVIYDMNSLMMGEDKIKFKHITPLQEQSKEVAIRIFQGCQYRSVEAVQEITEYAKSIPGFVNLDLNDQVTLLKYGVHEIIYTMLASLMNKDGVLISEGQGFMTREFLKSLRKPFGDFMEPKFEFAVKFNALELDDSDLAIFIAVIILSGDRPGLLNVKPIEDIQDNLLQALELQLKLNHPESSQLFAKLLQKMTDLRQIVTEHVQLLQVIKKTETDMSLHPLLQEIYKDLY
- procedure details: ITC binding of endogenous ligands to PPARγ LBD F287Y
- assay context: PBS pH 7.2, 25 °C, ligand 0.9 mM
// pKd lookup, one value per entry
Kindly note that pKd refers to -log10 of the concentration in mol/L and answer with the value alone.

> print(dat)
                                   compound  assay.endpoint  measured.number
1  CCCCC[C@H](O)/C=C/C=C\CCCCCCCC(=O)O [13S-HODE, 13S-hydroxy-9Z,11E-octadecadienoic acid]             pKd             4.56

Item: CCCCCC=CC=C1C(=O)C=C[C@@H]1CC=CCCCC(=O)O [15d-PGJ2, 15-deoxy-∆^12,14-prostaglandin J2] | pKd: 4.19

* * *

- measurement target: PPARγ LBD Q286E (Homo sapiens, UniProt P37231, Q314E)
- Construct: PPARγ LBD (residues 195–477 in PPARγ1 numbering) was cloned into the expression vector pET-28b(+)
- Sequence (P37231 223-505 Q314E): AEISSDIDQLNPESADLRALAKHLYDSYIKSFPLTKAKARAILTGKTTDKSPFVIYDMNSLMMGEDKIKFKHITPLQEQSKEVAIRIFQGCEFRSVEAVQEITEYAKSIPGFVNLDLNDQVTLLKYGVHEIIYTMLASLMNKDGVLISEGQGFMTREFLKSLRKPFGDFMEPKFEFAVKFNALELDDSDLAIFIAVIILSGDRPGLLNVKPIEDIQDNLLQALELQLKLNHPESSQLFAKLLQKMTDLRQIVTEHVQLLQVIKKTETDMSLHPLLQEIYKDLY
- procedure details: ITC binding of endogenous ligands to PPARγ LBD Q286E
- assay context: PBS pH 7.2, 25 °C, ligand 0.9 mM
assay endpoint: pKd
In plain terms, pKd is the concentration in mol/L turned into minus its base-10 logarithm.

pKd reported for this compound CCCCC[C@H](O)/C=C/C=C\CCCCCCCC(=O)O [13S-HODE, 13S-hydroxy-9Z,11E-octadecadienoic acid] : 4.34

* * *

- measurement target: PPARγ LBD S289C (Homo sapiens, UniProt P37231, S317C)
- Construct: PPARγ LBD (residues 195–477 in PPARγ1 numbering) was cloned into the expression vector pET-28b(+)
- Sequence (P37231 223-505 S317C): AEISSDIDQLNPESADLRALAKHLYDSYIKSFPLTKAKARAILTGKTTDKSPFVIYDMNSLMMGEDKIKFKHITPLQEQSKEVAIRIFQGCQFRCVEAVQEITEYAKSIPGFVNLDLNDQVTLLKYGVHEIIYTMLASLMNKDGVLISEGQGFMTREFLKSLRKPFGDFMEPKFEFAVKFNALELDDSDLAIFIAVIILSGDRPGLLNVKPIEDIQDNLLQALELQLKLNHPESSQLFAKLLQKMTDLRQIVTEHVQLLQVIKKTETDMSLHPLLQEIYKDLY
- procedure details: ITC binding of endogenous ligands to PPARγ LBD S289C
- assay context: PBS pH 7.2, 25 °C, ligand 0.9 mM
assay endpoint: pKd
Value format note: pKd is -log10 of concentration (mol/L); just state the number.

Form field, pKd with PPARγ LBD S289C (Homo sapiens, UniProt P37231, S317C), item CCCCCC=CC=C1C(=O)C=C[C@@H]1CC=CCCCC(=O)O [15d-PGJ2, 15-deoxy-∆^12,14-prostaglandin J2] : 4.37

* * *

- measurement target: PPARγ LBD R280C (Homo sapiens, UniProt P37231, R308C)
- Construct: PPARγ LBD (residues 195–477 in PPARγ1 numbering) was cloned into the expression vector pET-28b(+); made in house; host or cells: Escherichia coli Rosetta 2(DE3)
- Sequence (P37231 223-505 R308C): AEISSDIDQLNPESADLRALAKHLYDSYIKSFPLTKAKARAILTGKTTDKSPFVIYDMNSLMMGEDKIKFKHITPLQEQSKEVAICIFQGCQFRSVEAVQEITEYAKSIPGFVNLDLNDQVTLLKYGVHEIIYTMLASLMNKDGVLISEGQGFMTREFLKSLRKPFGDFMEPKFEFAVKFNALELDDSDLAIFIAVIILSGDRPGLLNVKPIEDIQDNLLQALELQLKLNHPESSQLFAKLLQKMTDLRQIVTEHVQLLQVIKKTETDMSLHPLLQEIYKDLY
- procedure details: ITC binding of endogenous ligands to PPARγ LBD R280C
- assay context: PBS pH 7.2, 25 °C, ligand 0.9 mM
pKd: −log10 of the molar value.
Listed below: pKd values for each entry.

> print(dat)
                                   compound  assay.endpoint  result
1  CCCCC[C@H](O)/C=C/C=C\CCCCCCCC(=O)O [13S-HODE, 13S-hydroxy-9Z,11E-octadecadienoic acid]             pKd  < 3.70

# next compound below
The value of pKd measured for the compound CCCCCC=CC=C1C(=O)C=C[C@@H]1CC=CCCCC(=O)O [15d-PGJ2, 15-deoxy-∆^12,14-prostaglandin J2] turned out to be < 3.70
